System: NOMO1
Experiment: cell viability relative to DMSO control; higher = less cytotoxic
Details: HPLM + 10% dialyzed FBS; 48 h; 0.00702 µM
Parameter: cell viability (%)
Please reply with the bare figure in % and do not write the unit itself.

Compound: N=C(N)NC(=N)N1CCOCC1
Parameter: cell viability
Observed result: 106
//
Compound: O=[S+]([O-])(NCCNC/C=C/c1ccc(Br)cc1)c1cccc2cnccc12
Parameter: cell viability
Observed result: 109
//
Compound: CCCCCCCCCCCC/1=C(O)/C(=O)/C=C(O)\C1=O
Parameter: cell viability
Observed result: 142
//
Compound: CN(C)[C@@H](CCOc1cccc2ccccc12)c1ccccc1
Parameter: cell viability
Observed result: 129
//
Compound: C1COC(NC(C2CC2)C2CC2)=N1
Parameter: cell viability
Observed result: 93

What does the data say about its cell viability? Entry: CC(S)C(=O)NCC(=O)O (stereo unspecified)
110
